FYI, the data here is from PubChem BioAssay AID248.

System: L1210 leukemia ip in BDF1 mice, survival T/C
Assay: NCI In Vivo Anticancer Drug Screen. Data for tumor model L1210 Leukemia (intraperitoneal) in B6D2F1 (BDF1) mice
Conditions: endpoint: mean survival time; dose: 400.0 mg/kg/injection; schedule: Q04DX002 (ip); vehicle: saline with Tween-80; higher = longer survival
Procedure: The antitumor activity of compounds was measured in mice bearing transplantable tumors. Survival or tumor size were measured and the results are expressed as the measurement made in the treated group (T) divided by the measurement made in the vehicle treated control group (C). The tumor model used in this assay is L1210 Leukemia (intraperitoneal) in B6D2F1 (BDF1) mice
Toxic doses and inconclusive results are not listed.
READOUT_KIND: T/C

Known T/C results, listed for orientation:
{"COMPOUND": "N#CCCN(Cc1cccnc1)CN1C(=O)c2ccccc2C1=O", "T/C": "102 % of control"}
{"COMPOUND": "CCCCCCCNC(=S)OCC", "T/C": "107 % of control"}
{"COMPOUND": "CC(NC(=O)C(C)(C)C)c1ccc(-c2ccccc2)cc1 (centres undefined)", "T/C": "98 % of control"}

Query: Fill: T/C (L1210 leukemia ip in BDF1 mice, survival T/C) for this compound `Cc1cc(C)c(NS(=O)(=O)c2ccccc2)c([N+](=O)[O-])c1`
Reply: 104 % of control

Query: Fill: T/C (L1210 leukemia ip in BDF1 mice, survival T/C) for this compound `BrC[Si](c1ccccc1)(c1ccccc1)c1ccccc1`
Reply: 92 % of control

Query: Fill: T/C (L1210 leukemia ip in BDF1 mice, survival T/C) for this compound OCCC#CCCOC1CCCCO1 (centres undefined)
Reply: 103 % of control

Query: Fill: T/C (L1210 leukemia ip in BDF1 mice, survival T/C) for this compound `c1ccc(N(c2ccccc2)[Si](c2ccccc2)(c2ccccc2)c2ccccc2)cc1`
Reply: 104 % of control

Query: Fill: T/C (L1210 leukemia ip in BDF1 mice, survival T/C) for this compound `C(=C\C1SCCCS1)/c1ccccc1`
Reply: 101 % of control

Query: Fill: T/C (L1210 leukemia ip in BDF1 mice, survival T/C) for this compound `FC(F)(F)c1cc(Br)c2ccc3ncccc3c2n1`
Reply: 96 % of control
